What follows is a collection of Ki values obtained with human CB2 (Homo sapiens, UniProt P34972).
Sequence (P34972 whole entry): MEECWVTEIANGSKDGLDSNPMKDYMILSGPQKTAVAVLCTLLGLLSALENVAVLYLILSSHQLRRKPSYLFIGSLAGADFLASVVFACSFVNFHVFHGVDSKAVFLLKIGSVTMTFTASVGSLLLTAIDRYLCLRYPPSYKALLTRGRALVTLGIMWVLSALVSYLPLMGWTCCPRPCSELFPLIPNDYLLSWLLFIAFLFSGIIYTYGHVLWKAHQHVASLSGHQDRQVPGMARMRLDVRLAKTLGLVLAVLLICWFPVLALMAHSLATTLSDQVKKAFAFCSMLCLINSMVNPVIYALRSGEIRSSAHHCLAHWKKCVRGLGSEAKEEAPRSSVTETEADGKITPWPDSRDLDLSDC

Molecule | Ki, µM
Oc1ccc(/C=C/c2cc(O)cc(O)c2)cc1 [tRes, trans-resveratrol] | 65.5
CC(C)/C=C/c1c(O)cc(/C=C/c2ccc(O)cc2)cc1O [tA3, trans-arachidin-3] | 11.3
